All figures here come from PubChem BioAssay (NCI).

System: MOLT-4 leukemia
Protocol Description: NCI tumour cell line growth inhibition, 48 h
Quantity Measured: TGI (µM)
Give bare numbers, in µM.

# count of solved cases: 2
Compound	Tested System	Units	Test Result
CCCCCCCc1c(Cl)nc(Cl)nc1Cl	MOLT-4 leukemia	µM	3.51
CC(=O)N1N=C(c2cc(C)ccc2O)CC1c1cccc(Cl)c1 (stereo not given)	MOLT-4 leukemia	µM	28

Now look at this entry.
Prompt: State the recorded TGI for this entry: CCN(CC)CCNC(=O)c1cn2ncnc(Oc3ccc(NC(=O)Nc4ccc(Cl)c(C(F)(F)F)c4)cc3)c2c1C
Response: 2.4

====

System: HCT-116 colon
Protocol Description: NCI tumour cell line growth inhibition, 48 h; in the data active = GI50 below about 0.43 µM; inactive = the rest
Field 'call' accepts active, inactive

Smiles Code	Category Label
Clc1ccc(N2CCN(CCCN3CCN(c4cccc(Cl)c4)CC3)CC2)cc1	inactive
CCOC(=O)c1ccc2[nH]c(O)c(C(=Nc3ccc(N(C)C(=O)CN4CCN(C)CC4)cc3)c3ccccc3)c2c1	active
COc1cc(-c2cc(/C=C/C(=O)c3ccc(N)cc3)[nH]n2)cc(OC)c1OC	inactive
Cn1c2c(c3ccc(-c4ccn[nH]4)cc3c1=O)C(=O)c1ccccc1-2	inactive
NCCCCCCn1c2c(c3ccccc3c1=O)C(=O)c1ccccc1-2	inactive

# input for lookup
Prompt: // outcome(item) with item = CCCN1C(=O)/C(=C/c2cccc(O)c2)SC1=Nc1ccc(OC)cc1
Response: inactive

====

Tested on: OVCAR-5 ovarian
Protocol Description: NCI tumour cell line growth inhibition, 48 h
Quantity Measured: TGI (µM)
One number for each entry, in µM.

// below: answered compounds
Compound	Tested System	Units	TGI
CC1=NN(c2cccc(Cl)c2)C2(SCC(=O)N2c2nc3ccccc3s2)/C1=C\c1ccccc1 (stereo unspecified)	OVCAR-5 ovarian	µM	58.8
CC(C)(C)c1ccc2c(c1)C(O)(c1ccccc1)c1cc(C(C)(C)C)ccc1C2(O)C(F)(F)F (stereo unspecified)	OVCAR-5 ovarian	µM	3.05

Moving on to the next compound.
Prompt: Look up TGI for this compound: O=C(Nc1ccc(Cl)cc1)Nc1ccc(Oc2nncc3ccccc23)cc1
Response: 4.47

====

Tested on: SK-MEL-5 melanoma
Protocol Description: NCI tumour cell line growth inhibition, 48 h
I'd be grateful if you could share measured TGI for these entries.
One number for each entry, in µM.

Compound	TGI / µM
CCCCCc1cc2cc3c(c(O)c2c(=O)[nH]1)C1(CC3)C(O)=c2c(=O)c3c(=O)cc(OC)c(=O)c=3c(=O)c2=C1O (stereo not given)	2.22
CCOC(=O)c1ccc2[nH]c(O)c(C(=Nc3ccc(N(C)C(=O)CN4CCN(C)CC4)cc3)c3ccccc3)c2c1	1.58
O=c1c2c([nH]c3cc4c(cc13)OCO4)-c1ccccc1C2	29.6
C/C=C(\C)C(=O)O[C@H]1C=CC(=O)O[C@H]1CC[C@H](O)[C@H](C)O	11

Turning now to a further compound:
Prompt: Record request: TGI value, item Cc1cc2cc3c(Cl)c(CCCl)c(C)nc3cc2c(Cl)c1CCCl
Response: 26.6

====

Test system: SNB-19 CNS
Protocol Description: NCI tumour cell line growth inhibition, 48 h
Quantity Measured: TGI

// for each compound in input: emit TGI
1. COc1cc(-c2cc(/C=C/C(=O)c3ccc(N)cc3)[nH]n2)cc(OC)c1OC
2. CC#CC(OCC)(OCC)OCC
3. C[N+](C)(C)CC(=O)N/N=C(/Cc1nc2ccc(Cl)cc2[nH]c1=O)C1=NS(=O)(=O)c2cc(S(N)(=O)=O)c(Cl)cc2N1
4. O=C(O[C@H]1CN[C@H](C#Cc2cc3ncnc(Nc4ccc5c(cnn5Cc5ccccc5)c4)c3s2)C1)N1CCOCC1
5. CCc1nnc(CC)n1-n1c(Cc2ccccc2)n[nH]c1=O

Response:
9.98 µM
> 100 µM
> 100 µM
> 25 µM
> 100 µM
